Biological target: human PRMT8 (Homo sapiens, UniProt Q9NR22)
Sequence (Q9NR22 whole entry): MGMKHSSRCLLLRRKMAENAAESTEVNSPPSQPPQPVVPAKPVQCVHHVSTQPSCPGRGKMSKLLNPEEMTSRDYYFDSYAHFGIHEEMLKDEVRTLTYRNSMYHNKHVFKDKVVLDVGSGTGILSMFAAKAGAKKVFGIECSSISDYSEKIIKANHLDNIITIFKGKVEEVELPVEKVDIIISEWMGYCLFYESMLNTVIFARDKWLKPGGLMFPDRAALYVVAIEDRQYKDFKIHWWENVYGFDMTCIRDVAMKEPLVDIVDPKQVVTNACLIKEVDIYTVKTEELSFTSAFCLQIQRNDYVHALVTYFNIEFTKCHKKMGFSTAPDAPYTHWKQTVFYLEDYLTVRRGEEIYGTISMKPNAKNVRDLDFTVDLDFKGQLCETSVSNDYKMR
Test: PRMT8 Biochemical Assay
Settings: PRMT8 IC50 (uM), peptide substrate, 3H-SAM Flashplate assay

compound	units of measure	IC50
CNCCN(C)Cc1ccnn1-c1cc(OCCOC)cc(C(F)(F)F)c1	µM	8.45
CN(CCN)Cc1c[nH]nc1-c1ccc(N2CCOCC2)cc1	µM	0.413
CNCCN(C)Cc1c[nH]nc1-c1ccc(N2CC3CCCC3C2)nc1 (stereo not shown)	µM	0.0254
CNCCN(C)Cc1c[nH]nc1-c1cc(OC2CCCC2)cc(C(F)(F)F)c1	µM	0.0871
CCOCC(C)c1cc(OCCOC)cc(-c2n[nH]cc2CN(C)CCNC)c1 (stereo not shown)	µM	0.15
CNCCN(C)Cc1c[nH]nc1-c1ccc(OCCOc2cccc(CO)c2)cc1	µM	0.0258
CNCCN(C)Cc1c[nH]nc1-c1ccc(OCCOc2ccc(Oc3ccc(OCCOC)cc3)cc2)cc1	µM	0.0193
CNCCN(C)Cc1c[nH]nc1-c1ccc(OCCOc2ccc(OCCC3CCOCC3)cc2)cc1	µM	0.023
CNCCN(C)Cc1c[nH]nc1-c1cc(OCCC(C)(C)O)cc(C(F)(F)F)c1	µM	0.326
CNCCN(C)Cc1c[nH]nc1-c1cc(OCCCO)cc(C(F)(F)F)c1	µM	0.3
CNCCN(C)Cc1c[nH]nc1-c1ccc(NC(C)c2cccnc2)nc1 (stereo not shown)	µM	0.026
CNCCN(C)Cc1c[nH]nc1-c1ccc(N(C)CCCOc2ccc(OC)cc2)cc1 [Compound 10]	µM	0.0124
CNCCN(C)Cc1c[nH]nc1-c1ccc(OCCOc2cccc(OCCC(O)CO)c2)cc1 (stereo not shown)	µM	0.02
CN(CCN)Cc1c[nH]nc1-c1ccc2c(c1)OCC(=O)N2	µM	0.459
CNCCN(C)Cc1c[nH]nc1-c1cc(OC2CCOC2)cc(C(F)(F)F)c1 (stereo not shown)	µM	0.228
CNCCN(C)Cc1c[nH]nc1-c1ccc(OCCOc2cccc(N3CCOCC3)c2)cc1	µM	0.0337
